# Test system: HT29 colon
# Test name: NCI tumour cell line growth inhibition, 48 h
Measured parameter: TGI

Field: example entries. Status: answers known.
N#CC1C(=N)Cc2ccccc2-c2ccccc21 (configuration not stated) ... 19.6 µM
OCCCSc1ccccc1SCCCO ... > 100 µM
CCC(=O)OCc1ccc2oc(=O)c(C(=O)Oc3cncc(Cl)c3)cc2c1 ... > 100 µM
COc1ccc2cc(C(=O)/C=C/c3cccc(Cl)c3Cl)ccc2c1 ... > 64.2 µM

Input: May I ask what TGI has been recorded for O=S(=O)(NC(=S)Nc1ccccc1)c1ccc(N2N=C3c4ccccc4CC3C2c2cccs2)cc1 (configuration not stated) ?
Output: > 100 µM

Input: Give the measured TGI of Cn1c(N2CCCC2)c(C=O)c(=O)n(C)c1=O .
Output: > 100 µM

Input: Name the reported TGI value associated with the compound COc1cc2cc(Oc3ccc(NC(=O)Nc4ccccc4)cc3)c(C)nc2cc1OCCN1CCCCC1
Output: 9.35 µM

Input: Name the recorded TGI for CN(C)C(=O)CC(C(=O)O)c1c[nH]c2ccccc12 (configuration not stated) .
Output: > 100 µM

Input: Quick check: TGI of CC[C@@]1(O)C(=O)OCc2c1cc1n(c2=O)Cc2cc3cc(OC)ccc3nc2-1 ?
Output: 0.238 µM

Input: Please report the recorded TGI for O=C(O)c1cc2ccccc2c(N=Nc2c([N+](=O)[O-])cc([N+](=O)[O-])cc2S(=O)(=O)O)c1O .
Output: > 100 µM

Input: Look up TGI: COC(=O)C1OC(O[C@H]2CC[C@]3(C)[C@H]4CC=C5[C@@H]6CC(C)(C)CC[C@]6(C(=O)OC)[C@H](O)C[C@@]5(C)[C@]4(C)CC[C@H]3C2(C)C)C(O)C(O)C1O (some centres not stated)
Output: 13.5 µM

Input: Fill in the blank: the reported TGI of N=c1c2c3n(c4c(=O)n(-c5ccccc5)c(=S)n(c(=O)n1-c1ccccc1)c24)CCCCC3 is ____.
Output: > 100 µM
